pIC50: −log10 of the molar value.
Dear all, I have gathered published pIC50 values for BTK (Homo sapiens); the list follows.

Entry O=C(CNc1ccc(F)c(F)c1F)N[C@@H]1CCCN(c2ncnc3[nH]ccc23)C1 under BTK (Homo sapiens) had pIC50 of 6.00 to 7.00

Entry O=C(CNc1ccccc1OC1CCCCCC1)N[C@@H]1CCCN(c2ncnc3[nH]ccc23)C1 under BTK (Homo sapiens) had pIC50 of > 7.00

Entry Cc1cc(-c2cc(Nc3cc4n(n3)CCCN(CCO)C4)ncn2)ccc1CNC(=O)c1cnc(C(C)(C)C)s1 under BTK (Homo sapiens) had pIC50 of > 8.00

Entry C=CC(=O)N[C@H]1CC[C@@H](Nc2nc(Nc3cnn(C)c3)nc3ccoc23)CC1 under BTK (Homo sapiens) had pIC50 of ≥ 7.30

Entry Cc1cc(-c2ccnc(N)n2)ccc1CNC(=O)c1cc2c(s1)CCS(=O)(=O)C2 under BTK (Homo sapiens) had pIC50 of 5.00 to 6.00

Entry Oc1ccc(F)c(C(O)c2c[nH]c3ncc(-c4cccnc4)cc23)c1F (centres unmarked) under BTK (Homo sapiens) had pIC50 of ≥ 5.00

Entry CC1C(N(C)c2ncnc3[nH]ncc23)CCCN1C(=O)CNc1cc(Cl)cc(Cl)c1 (centres unmarked) under BTK (Homo sapiens) had pIC50 of > 7.00

Entry C=CC(=O)N1CCC[C@@H](n2nc(-c3ccc(C(=O)Nc4ccccn4)cc3Cl)c3c(N)nccc32)C1 under BTK (Homo sapiens) had pIC50 of 9.40

Entry CC1CC(C)CN(S(=O)(=O)c2ccccc2NCC(=O)N[C@@H]2CCCN(c3ncnc4[nH]ncc34)C2)C1 (some centres unmarked) under BTK (Homo sapiens) had pIC50 of > 7.00

Entry C=CC(=O)Nc1ccc(-n2nc(-c3ccc(Cl)c(Cl)c3)c3c(N)ncnc32)cc1 under BTK (Homo sapiens) had pIC50 of > 7.00

Entry C/C=C/C(=O)N1CC2CC1C(n1nc(-c3ccc(Oc4ccccc4)cc3)c3c(N)ncnc31)C2 (centres unmarked) under BTK (Homo sapiens) had pIC50 of 6.70

Entry C=CC(=O)N1CC2(CCNCC2)CC1c1nc(-c2ccc(C(=O)Nc3ccccn3)cc2)c2c(N)nccn12 (centres unmarked) under BTK (Homo sapiens) had pIC50 of 7.03

Entry C=CC(=O)Nc1cccc(-c2cc(-c3ccc(C)nc3)cc3cnc(N)nc23)c1 under BTK (Homo sapiens) had pIC50 of > 7.00

Entry C=CC(=O)N1CC[C@]2(C1)C[C@H](n1c(NC(=O)c3ccc(-c4cnco4)s3)nc3cc(Cl)ccc31)C2 under BTK (Homo sapiens) had pIC50 of 8.89

Entry Cc1cc(-c2cc(Nc3cc4n(n3)CCN(C)C4)ncn2)ccc1CNC(=O)c1cnc(C(C)(C)C)s1 under BTK (Homo sapiens) had pIC50 of > 8.00

Entry Cc1cc(-c2ccnc(Nc3cnn(C[C@H](N)CO)c3)n2)ccc1CNC(=O)c1cnc(C(C)(C)C)s1 under BTK (Homo sapiens) had pIC50 of > 8.00

Entry Cc1cc(-c2ccnc(Nc3cnn(C)c3)n2)ccc1CNC(=O)c1cc2c(s1)CCNC2C (centres unmarked) under BTK (Homo sapiens) had pIC50 of 7.00 to 8.00

Entry C=CC(=O)N(C)c1cccc(-c2cc(CN3CCOCC3)cc(Nc3ncc(C)s3)n2)c1 under BTK (Homo sapiens) had pIC50 of 8.72

Entry CC[C@H](C)[C@@H](Nc1cc(F)cc(Cl)c1)C(=O)N[C@H]1CN(c2ncnc3[nH]ncc23)CC[C@@H]1C under BTK (Homo sapiens) had pIC50 of > 7.00

Entry C#Cc1cccc(Nc2cc(Nc3cccc(NC(=O)C=C)c3)ncn2)c1 under BTK (Homo sapiens) had pIC50 of 7.00 to 8.00

Entry C[C@H]1CNC(=O)c2cnn3cc(-c4ccccn4)c(nc23)NCc2cc(F)cnc2O1 under BTK (Homo sapiens) had pIC50 of < 5.00

Entry Cc1cc(-c2cc(Nc3nnn(C)n3)ncn2)ccc1CNC(=O)c1cnc(C(C)(C)C)s1 under BTK (Homo sapiens) had pIC50 of 7.00 to 8.00

Entry C=CC(=O)Nc1cccc(-c2cc(-c3cccnc3)cc3cncnc23)c1 under BTK (Homo sapiens) had pIC50 of > 7.00

Entry Cc1cc(-c2ccnc(N)n2)ccc1CNC(=O)c1cnn(C)c1 under BTK (Homo sapiens) had pIC50 of 5.00 to 6.00

Entry c1ccc(Cn2ncc3ccc(Nc4nc5c(-c6nccs6)nccn5n4)cc32)cc1 under BTK (Homo sapiens) had pIC50 of 4.30 to 5.52

Entry Cn1cc(Nc2cc(-c3ccc4c(c3)CCCC4NC(=O)c3cc4c(s3)CCOC4)ncn2)cn1 (centres unmarked) under BTK (Homo sapiens) had pIC50 of 6.00 to 7.00

* * *

pIC50: −log10 of the molar value.
Dear all, I have gathered published pIC50 values for UniProt Q06187; the list follows.

Entry C=CC(=O)N1CC[C@@H](c2nc(-c3ccc(Oc4ccccc4)cc3)c3cnccn23)C1 under UniProt Q06187 had pIC50 of > 7.00

Entry O=C(NCc1ccc(-c2ncnc3[nH]ccc23)cc1)c1cc2ccccc2s1 under UniProt Q06187 had pIC50 of 7.00 to 8.00

Entry O=c1c2c(F)cc(C3CC3)cc2ccn1C1CCCc2cc(-c3ncnc4[nH]ncc34)ccc21 (stereo not drawn) under UniProt Q06187 had pIC50 of 7.00 to 8.00

Entry C=CC(=O)N1CC[C@@H](n2c(Cl)c(-c3ccc(Cl)cc3)c3c(N)ncnc32)C1 under UniProt Q06187 had pIC50 of > 7.00

Entry Cn1cc(-c2cn3nccc3c(-c3ccc(CNC(=O)c4noc(C(C)(C)C)n4)nc3)n2)cn1 under UniProt Q06187 had pIC50 of 8.00 to 9.00

Entry C=CC(=O)N1CCC[C@H]1c1nc(-c2ccc(OCc3ccccc3)nc2)c2c(N)nccn12 under UniProt Q06187 had pIC50 of ≥ 7.00

Entry O=C1CCc2c(ncnc2N2CCC[C@@H](NC(=O)[C@H](Nc3cc(F)cc(Cl)c3)C3CC3)C2)N1 under UniProt Q06187 had pIC50 of 6.00 to 7.00

Entry C=CC(=O)N1CCC[C@@H](n2nc(Nc3cnn(C4CC4)c3)c3c(N)nccc32)C1 under UniProt Q06187 had pIC50 of 6.73

Entry Cc1cc(-c2cc(Nc3ccn([C@@H]4CCOC4)n3)ncn2)ccc1CNC(=O)c1cnc(C(C)(C)C)s1 under UniProt Q06187 had pIC50 of > 8.00

* * *

pIC50: −log10 of the molar value.
Dear all, I have gathered published pIC50 values for BTK (Homo sapiens); the list follows.

The reported pIC50 of the compound C=CC(=O)N1CCC[C@@H](n2cc(-c3ccc(Oc4ccccc4)cc3)c3c(N)ncnc32)C1 (racemic) was 9.33

The reported pIC50 of the compound Cc1cc(-c2ccnc3[nH]ncc23)cnc1CNC(=O)c1cc2c(s1)CCCC2 was 7.00 to 8.00

The reported pIC50 of the compound CC(C)OC1CN(C(=O)NC2CCCCc3cc(-c4ccnc(Nc5cnn([C@H]6CCOC6)c5)n4)ccc32)C1 (stereo partly drawn) was > 8.00

The reported pIC50 of the compound O=C(CNc1ccccc1)N(CCN1CCOCC1)C1CCCN(c2ncnc3[nH]ccc23)C1 (stereo not drawn) was 6.00 to 7.00

The reported pIC50 of the compound COc1ncc(-c2cnc3[nH]cc(C(=O)c4c(F)ccc(NS(=O)(=O)CC(C)C)c4F)c3c2)cn1 was ≥ 5.00

The reported pIC50 of the compound CN(C/C=C/C(=O)N1CC[C@@H](n2nc(-c3ccc(C(=O)Nc4ccccn4)cc3)c3c(N)ncnc32)C1)C1CC1 was > 7.00

The reported pIC50 of the compound CC1C(Nc2ncnc3[nH]ccc23)CCCN1C(=O)[C@H](Nc1cc(Cl)cc(Cl)c1)C1CC1 (stereo partly drawn) was 6.00 to 7.00

The reported pIC50 of the compound CN(C(=O)/C=C/CN(C)C1CC1)c1cc(-n2nc(-c3ccc(Cl)cc3)c3c(N)ncnc32)ccc1F was > 7.00

The reported pIC50 of the compound O=C(NC1CCCc2cc(-c3ncnc4[nH]ncc34)ccc21)c1ccc(C(F)(F)F)c(F)c1 (stereo not drawn) was 7.00 to 8.00

The reported pIC50 of the compound Cc1cc(-c2ccnc(Nc3cnn(C)c3)n2)ccc1CNC(=O)N1CCN(C(C)(C)C)CC1 was 6.00 to 7.00

The reported pIC50 of the compound C=CC(=O)N1CC[C@@H](Nc2nc(Nc3cc(C)ns3)nn3cccc23)C1 was ≥ 7.30

The reported pIC50 of the compound CC#CC(=O)N1CC[C@@H](n2cc(-c3ccc(Oc4ccccc4)cc3)c3c(N)n[nH]c(=O)c32)C1 was 6.00 to 8.00

* * *

Dear all, I have gathered published pIC50 values for BTK (Homo sapiens); the list follows.
pIC50: −log10 of the molar value.

Entry CCn1cc(Nc2nccc(-c3ccc4c(c3)CCCCC4NC(=O)N3CC(OC(C)(C)C)C3)n2)cn1 (centres unmarked) under BTK (Homo sapiens) had pIC50 of > 8.00

Entry NC(=O)c1nnc2c(N3CCc4cn[nH]c4C3)cccc2c1N under BTK (Homo sapiens) had pIC50 of 6.00

Entry C=CC(=O)N1CCc2c(cccc2-c2c(F)cc(C(N)=O)c3[nH]c4c(c23)CC2(CCC2)CC4)C1 under BTK (Homo sapiens) had pIC50 of 7.00 to 8.00

Entry C=CC(=O)N1CCC[C@@H](Nc2nc(Nc3cnn(C4CCCC4)c3)nc3ccsc23)C1 under BTK (Homo sapiens) had pIC50 of ≥ 7.30

Entry Cc1cc(-c2cc(Nc3ccn(C)n3)ncn2)ccc1CNC(=O)c1cnc(C(C)(C)C)s1 under BTK (Homo sapiens) had pIC50 of > 8.00

Entry COc1ccc(-c2ccc3cn[nH]c3c2)c2nnc(C(N)=O)c(N)c12 under BTK (Homo sapiens) had pIC50 of 7.40

Entry Cc1c(NC(=O)NC2CCC(S(C)(=O)=O)CC2)cccc1-c1cc(Nc2ccc(C(=O)N3CCOCC3)cn2)c2nccn2c1 (centres unmarked) under BTK (Homo sapiens) had pIC50 of 8.00

Entry Cc1nc(-c2ccnc(Nc3cnn(C)c3)n2)ccc1CNC(=O)c1cnc(C(C)(C)C)s1 under BTK (Homo sapiens) had pIC50 of 7.00 to 8.00
